Hello, the source for this data is PubChem BioAssay, in case you need it.

- SYSTEM: Streptavidin (Streptomyces avidinii) (UniProt P22629)
- Sequence (P22629 whole entry, looked up): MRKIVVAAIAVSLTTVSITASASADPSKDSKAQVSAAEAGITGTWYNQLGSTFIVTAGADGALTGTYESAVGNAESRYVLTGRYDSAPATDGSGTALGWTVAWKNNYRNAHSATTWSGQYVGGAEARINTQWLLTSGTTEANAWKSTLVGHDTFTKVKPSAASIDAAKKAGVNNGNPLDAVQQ
- PROTOCOL_DETAILS: compounds binding control protein streptavidin – biophysical, small-molecule microarray, 635/667 nm fluorescence, artefact control for SMM compound annotation, primary screen (AID 1147);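 note: signal reflects streptavidin binding to arrayed compounds as a control protein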
- TEST_PARAMETERS: higher = more signal
Outcome: MET for composite z-score of at least 0.4; NOT MET for anything lower.

Q: Does the reported composite z-score for CN1C(=O)C2C=CC(C(O)COCc3ccccc3)N(Nc3ccccc3)C2C1=O (configuration not stated) fall at or above the 0.4 mark?
A: NOT MET

Q: Does the reported composite z-score for Cc1ccc(C(C)CC(O)C2C=CC3C(=O)N(Cc4ccccc4)C(=O)C3N2n2cnnc2)o1 (configuration not stated) fall at or above the 0.4 mark?
A: NOT MET

Q: Does the reported composite z-score for O=C(NCc1ccccc1)[C@]1(Cc2ccccc2)N=C(c2ccc(OCCCO)cc2)O[C@@H]1c1ccccc1 fall at or above the 0.4 mark?
A: MET

Q: Does the reported composite z-score for COc1ccc([Si](C)(C)[C@H]2[C@H](CCO)O[C@@]3(C(=O)N(Cc4cccc(N5CCOC5=O)c4)c4ccccc43)[C@@H]2C)cc1 fall at or above the 0.4 mark?
A: MET

Q: Does the reported composite z-score for C=CCC(OC(C)=O)[C@@H]1[C@@H](N(Cc2cccc3ccccc23)C(=O)Cc2ccc(F)cc2)c2cc(OCCCO)ccc2N1C(=O)Cc1ccc(OC)cc1 (some centres not stated) fall at or above the 0.4 mark?
A: NOT MET

Q: Does the reported composite z-score for COCCCNC(=O)[C@@]1(Cc2ccccc2CN=[N+]=[N-])N=C(c2ccc(OCCCO)cc2)O[C@H]1c1ccccc1N=[N+]=[N-] fall at or above the 0.4 mark?
A: MET

Q: Does the reported composite z-score for O=C1O[C@@H](c2ccccc2)[C@@H](c2ccccc2)N2[C@@H](c3ccc(O)cc3)[C@]3(C(=O)Nc4ccc(C#CC5(O)CCCCCC5)cc43)[C@@H](C(=O)N3CCN(c4ncccn4)CC3)[C@H]12 fall at or above the 0.4 mark?
A: MET
